B1: Caulobacter ParB omega fusion; a variant is named by its letters at X, in order, B8GW30 (parent)
chain: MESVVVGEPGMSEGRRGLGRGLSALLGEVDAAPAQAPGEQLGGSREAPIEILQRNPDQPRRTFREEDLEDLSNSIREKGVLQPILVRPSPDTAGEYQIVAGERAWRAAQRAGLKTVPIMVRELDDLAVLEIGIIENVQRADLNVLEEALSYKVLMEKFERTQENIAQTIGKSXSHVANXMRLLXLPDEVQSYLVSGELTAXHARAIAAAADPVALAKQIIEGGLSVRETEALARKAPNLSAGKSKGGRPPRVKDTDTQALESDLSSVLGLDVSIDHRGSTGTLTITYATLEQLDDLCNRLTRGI

variants of: B1; experiment: one-hybrid fitness for binding NBS DNA (the Noc-binding site; scaled: cognate 1, non-cognate 0); higher = stronger binding; conditions: with NBS DNA site
In all, about 81,000 sequences were measured (“one-hybrid fitness for binding NBS DNA”: median about -0.1, highest 2% from about 0.36 on). The list comes from a sample in which the highest values are over-represented; it also holds close analogues and randomly drawn sequences.
metric name: one-hybrid fitness for binding NBS DNA

mutation=RMPR value_observed="≤ 0.2"
mutation=KIKM value_observed="≤ 0.2"
mutation=RKYC value_observed="≤ 0.2"
mutation=RQCP value_observed="≤ 0.2"
mutation=QRDT value_observed=0.671
mutation=RMSR value_observed=0.468
mutation=QKYS value_observed=0.43
mutation=PRCC value_observed="≤ 0.2"
mutation=RLGT value_observed=0.389
mutation=VLHR value_observed="≤ 0.2"
mutation=QCRV value_observed=0.525
mutation=QKRN value_observed=0.37
mutation=KMKR value_observed=0.4
mutation=SGNS value_observed="≤ 0.2"
mutation=YAHR value_observed="≤ 0.2"
mutation=KMVR value_observed="≤ 0.2"
mutation=RILE value_observed="≤ 0.2"
mutation=RKRC value_observed=0.4
mutation=RLKH value_observed=0.35
mutation=RLYT value_observed=0.391
mutation=TIMA value_observed="≤ 0.2"
mutation=RMRR value_observed=0.736
mutation=FWDR value_observed="≤ 0.2"
mutation=QKIS value_observed=0.278
mutation=RLPT value_observed="≤ 0.2"
mutation=QKPS value_observed="≤ 0.2"
mutation=PYWE value_observed="≤ 0.2"
mutation=QRHT value_observed=0.789
mutation=SLRF value_observed="≤ 0.2"
mutation=RMSP value_observed="≤ 0.2"
mutation=RSKR value_observed=0.682
mutation=RQAT value_observed=0.385
mutation=RSSE value_observed="≤ 0.2"
mutation=QKNP value_observed="≤ 0.2"
mutation=RSWC value_observed="≤ 0.2"
mutation=YLVK value_observed="≤ 0.2"
mutation=RWVM value_observed=0.413
mutation=SYKR value_observed=0.378
mutation=RRYC value_observed=0.313
mutation=RQCH value_observed="≤ 0.2"
mutation=RMQG value_observed="≤ 0.2"
mutation=RQSG value_observed="≤ 0.2"
mutation=QPET value_observed="≤ 0.2"
mutation=SYYR value_observed="≤ 0.2"
mutation=QKQD value_observed="≤ 0.2"
mutation=RMCL value_observed="≤ 0.2"
mutation=TRLN value_observed="≤ 0.2"
mutation=RLGM value_observed="≤ 0.2"
mutation=CDSD value_observed="≤ 0.2"
mutation=SYVR value_observed="≤ 0.2"
mutation=MVER value_observed=0.34
mutation=MVEC value_observed=0.453
mutation=YVLT value_observed="≤ 0.2"
mutation=RFKR value_observed=0.522
mutation=QRGV value_observed=0.452
mutation=QTDV value_observed="≤ 0.2"
mutation=QELW value_observed="≤ 0.2"
mutation=RRRC value_observed=0.39
mutation=RMSN value_observed="≤ 0.2"
mutation=PWTQ value_observed="≤ 0.2"
mutation=DYKR value_observed="≤ 0.2"
mutation=RQAD value_observed="≤ 0.2"
mutation=LTTA value_observed="≤ 0.2"
mutation=AEDA value_observed="≤ 0.2"
mutation=RQCT value_observed=0.382
mutation=KDLT value_observed="≤ 0.2"
mutation=RSVR value_observed=0.293
mutation=QTET value_observed=0.439
mutation=RCWC value_observed="≤ 0.2"
mutation=RWYM value_observed="≤ 0.2"
mutation=RQGT value_observed=0.351
mutation=RQFT value_observed=0.204
mutation=FWPP value_observed="≤ 0.2"

Source listed as a collection of fitness landscapes (doi:10.1016/j.celrep.2020.107928).
